assay: clinical; assay type: in vivo, human; conditions: both sexes, human, plasma, oral, 30 mg, 14 days, Day 14, ≥ 60 years, mean (CV%)
Value Kind: Cmax
Param answer (str): number followed by unit.

Sample C[C@@]1(c2nc(NC(=O)c3ncc(C(F)(F)F)cc3Cl)ccc2F)CO[C@@](C)(C(F)(F)F)C(N)=N1 [CNP520] — what was its Cmax?
211 ng/mL

---

experiment: clinical; type: in vivo, human; details: both sexes, human, CSF, oral; 85 mg q.d., 3 month study, mean (CV %); read-out: CSF conc 24h after dose Day 91
Value Kind: concentration at 24 h (ng/mL)
Express the result in ng/mL but write the number alone.

Sample C[C@@]1(c2nc(NC(=O)c3ncc(C(F)(F)F)cc3Cl)ccc2F)CO[C@@](C)(C(F)(F)F)C(N)=N1 [CNP520] — what was its concentration at 24 h?
10.4
